Recorded z-score for the following compounds
# Assay System: NADPH oxidase 2 (Homo sapiens) (UniProt P04839)
# Sequence (P04839 whole entry, looked up): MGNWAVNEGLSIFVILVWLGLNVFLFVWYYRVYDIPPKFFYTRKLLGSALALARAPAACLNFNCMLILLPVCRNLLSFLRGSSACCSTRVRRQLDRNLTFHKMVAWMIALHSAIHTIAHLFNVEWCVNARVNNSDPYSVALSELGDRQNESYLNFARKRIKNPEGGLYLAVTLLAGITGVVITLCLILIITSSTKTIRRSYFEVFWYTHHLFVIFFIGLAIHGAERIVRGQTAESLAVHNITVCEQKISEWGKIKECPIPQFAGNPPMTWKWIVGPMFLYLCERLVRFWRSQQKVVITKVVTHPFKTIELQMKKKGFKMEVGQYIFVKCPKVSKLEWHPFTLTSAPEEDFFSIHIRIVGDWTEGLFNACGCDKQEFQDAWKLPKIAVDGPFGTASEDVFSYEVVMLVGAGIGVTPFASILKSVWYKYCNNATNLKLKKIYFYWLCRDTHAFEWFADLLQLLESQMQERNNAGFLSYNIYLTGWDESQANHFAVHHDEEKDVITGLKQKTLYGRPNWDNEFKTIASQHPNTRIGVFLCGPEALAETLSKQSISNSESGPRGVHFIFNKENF
# Assay Method Text: NOX2-dependent H2O2 signal modulators, primary screen, NOX inhibitor project, cell-based, HEK293-NOX2, PMA-stimulated, Amplex Red fluorescence (AID 1159); note: test concentration not given here
# Conditions Used: 45 min, higher = more signal, called active from +8 up or from −8 down
Give the figure by itself; no unit, no explanation.

Some compounds with known z-score results, for comparison:
Compound: COCCCNC(=O)C1N=C(c2ccc(OCCCO)cc2)N(c2ccccc2)O1 (centres undefined)
Experimental Result: -3.86

Compound: COc1ccc(C(=O)Nc2cccc(CN3C(=O)[C@]4(O[C@H](CCO)[C@@H]([Si](C)(C)c5ccc(OC)cc5)[C@@H]4C)c4ccccc43)c2)cc1
Experimental Result: -6.65

Compound: COc1ccc(C(=O)Nc2ccc(CN3C(=O)[C@@]4(O[C@@H](CCn5cc([C@H](O)c6ccccc6)nn5)[C@H]([Si](C)(C)c5ccc(OC)cc5)[C@H]4C)c4ccccc43)cc2)cc1
Experimental Result: 0.295

Compound: COC(=O)[C@@]1(Cc2ccc(OC)cc2)[C@H]2c3cc(C(=O)N(C)C)n(Cc4cccc5ccccc45)c3C[C@H]2CN1C(=O)c1ccccc1
Experimental Result: -3.14

Compound: O=C(NCc1ccc(F)cc1)[C@H]1C[C@H]2C(=O)N[C@@H](Cc3ccccc3)C(=O)N2[C@H]1c1ccc(O)cc1
Experimental Result: 0.171

# input compound: O=C1C2C=CC(C(O)C3CCCCC3)N(Nc3ccc([N+](=O)[O-])cc3)C2C(=O)N1c1ccccc1 (centres undefined) ; wanted: its z-score
-1.03

# input compound: "COC(=O)c1c(CC[C@@H](CO)NC(=O)N[C@H](Cn2cc(Cc3ccccc3)nn2)C(C)C)oc(C(C)=O)c1C(=O)OC" ; wanted: its z-score
-3.91
